Molecular target: LXR beta (Homo sapiens, UniProt P55055)
Construct: 5 μL of 4×LXR beta-LBD was added to each well (final concentration 5 nM)
Sequence (P55055 222-460 limits assumed): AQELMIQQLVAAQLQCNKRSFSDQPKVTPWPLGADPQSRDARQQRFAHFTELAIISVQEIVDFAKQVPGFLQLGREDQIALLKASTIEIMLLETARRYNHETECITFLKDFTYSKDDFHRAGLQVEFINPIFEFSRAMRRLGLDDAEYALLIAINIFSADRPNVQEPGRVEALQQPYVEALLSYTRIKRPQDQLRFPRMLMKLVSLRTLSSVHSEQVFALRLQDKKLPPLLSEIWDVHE
Experiment: LXR beta agonist assay (Lanthascreen TR-FRET)
Details: LXR beta-LBD 5 nM, read-out: LXR-β EC50
OBSERVATION_TYPE: pEC50
Keep in mind that pEC50 stands for -log10 of concentration in molar terms.

# example entries with known answers
COMPOUND	pEC50
CN(C)C(=O)c1ccc(NC2CN(C3CCN(S(=O)(=O)c4ccccc4Cl)CC3)C2)cc1Cl [Compound 1.2]	5.48
CC1CN(C(=O)c2ccc(NC3CN(C4CCN(C(=O)C(O)(c5ccccc5)C(F)(F)F)CC4)C3)cc2Cl)C1 (centres unmarked) [Compound 1.94]	5.17
O=C(c1ccc(NC2CN(C3CCN(C(=O)[C@](O)(c4ccccc4)C(F)(F)F)CC3)C2)cc1Cl)N1CCCCC1 (single isomer, unassigned) [Compound 1.109]	5.52
CN(C)C(=O)c1c(F)cc(N2CCN(C3CC4(C3)CN(C(=O)C(O)(c3ccccc3)C(F)(F)F)C4)CC2)cc1F (centres unmarked) [Compound 1.126]	5.80
N#Cc1ccccc1S(=O)(=O)N1CCC(C2CCN(c3cc(Cl)c4c(=O)[nH]ccc4c3)CC2)CC1 [Compound 1.15]	5.56
CN(C)C(=O)c1ccc(N2CCN(C3CC4(C3)CN(C(=O)[C@](O)(c3ccccc3)C(F)(F)F)C4)CC2)cc1Cl (single isomer, unassigned) [Compound 1.17]	6.81
CN(C)C(=O)c1ccc(N2CCC(N3CC4(CCN(C(=O)[C@](O)(c5ccccc5)C(F)(F)F)CC4)C3)CC2)cc1Cl [Compound 1.79]	5.37
O=C(NCC(F)F)c1ccc(NC2CN(C3CCN(C(=O)C(O)(c4ccccc4)C(F)(F)F)CC3)C2)cc1Cl (centres unmarked) [Compound 1.98]	5.01
O=C(c1ccc(NC2CN(C3CCN(C(=O)C(O)(c4cccc(Cl)c4)C(F)(F)F)CC3)C2)cc1Cl)N1CCC(F)(F)C1 (centres unmarked) [Compound 1.132]	6.21
CN(C)C(=O)c1ccc(NC2CN(C3CCN(C(=O)C(C)(C)c4ccccc4)CC3)C2)cc1Cl [Compound 1.41]	5.24

The compound listed as COCCCN(C)C(=O)c1ccc(NC2CN(C3CCN(C(=O)[C@](O)(c4ccccc4)C(F)(F)F)CC3)C2)cc1Cl [Compound 1.124] shows pEC50 equal to 5.80

The compound listed as CN(C)C(=O)c1ccc(-c2nnc(C3=CCN(C(=O)C4CCC(F)(F)CC4)CC3)s2)cc1Cl [Compound 1.60] shows pEC50 equal to 5.82

The compound listed as CN(CCCC(F)(F)F)C(=O)c1ccc(NC2CN(C3CCN(C(=O)[C@](O)(c4ccccc4)C(F)(F)F)CC3)C2)cc1Cl [Compound 1.125] shows pEC50 equal to 5.40

The compound listed as CCN(CC)C(=O)c1ccc(NC2CN(C3CCN(C(=O)[C@@](O)(c4ccccc4)C(F)(F)F)CC3)C2)cc1Cl (single isomer, unassigned) [Compound 1.96] shows pEC50 equal to 5.34

The compound listed as CN(C)C(=O)c1ccc(N[C@@H]2CCCN(C3CCN(C(=O)[C@](O)(c4ccccc4)C(F)(F)F)CC3)C2)cc1Cl [Compound 1.71] shows pEC50 equal to 5.93
